assayed target: Muscarinic acetylcholine receptor M4 (Homo sapiens) (UniProt P08173)
Sequence (P08173 whole entry, looked up): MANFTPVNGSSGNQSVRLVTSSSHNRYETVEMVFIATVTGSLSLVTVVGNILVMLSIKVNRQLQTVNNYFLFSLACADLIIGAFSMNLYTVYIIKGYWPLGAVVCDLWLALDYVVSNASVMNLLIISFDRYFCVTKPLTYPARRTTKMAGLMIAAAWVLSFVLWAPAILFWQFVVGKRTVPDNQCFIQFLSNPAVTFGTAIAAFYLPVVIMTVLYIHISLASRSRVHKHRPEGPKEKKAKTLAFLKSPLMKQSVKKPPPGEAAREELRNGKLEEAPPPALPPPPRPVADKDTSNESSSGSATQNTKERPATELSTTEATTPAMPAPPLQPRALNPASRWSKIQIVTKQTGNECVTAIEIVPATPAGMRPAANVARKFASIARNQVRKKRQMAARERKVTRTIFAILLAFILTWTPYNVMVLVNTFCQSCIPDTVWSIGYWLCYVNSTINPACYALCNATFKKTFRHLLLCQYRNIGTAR
measurement notes: human M4 positive allosteric modulation fold shift – CHO cells, Gqi5 chimera, calcium mobilization, mechanism study, SAR follow-up (AID 623948)
settings: CHO hM4/Gqi5 calcium mobilization, measured here: ACh max response with compound, at 30 µM, stronger effect = higher value
reported endpoint: % ACh max (%)
I only need the number, in %, no unit after it.

Past entries and their recorded results:
COc1ccc(C)c2sc(NC(=O)C3=COCCO3)nc12 ... 106
COc1ccc(C)c2sc(NC(=O)c3ccncc3)nc12 ... 110
COc1ccc(C)c2sc(NC(=O)c3cnccn3)nc12 ... 110
COc1ccc(C)c2sc(NC(=O)c3ccco3)nc12 ... 112

Lab note: next molecule to report on.
# % ACh max measured on Muscarinic acetylcholine receptor M4 (Homo sapiens) (UniProt P08173) for item `COc1ccc(C)c2sc(NC(=O)c3cccnc3)nc12` = 105

The origin of these recorded values is PubChem BioAssay AID623948.
